Test system: NCI/ADR-RES ovarian
Experiment: NCI tumour cell line growth inhibition, 48 h
Where a SMILES comes first, the peptide text is derived from it. [ ]: non-standard residue; d: D form.
parameter_measured: TGI

| molecule | tested_on | parameter_measured | measurement |
| --- | --- | --- | --- |
| O=[N+]([O-])c1cc(Cl)cnc1Br | NCI/ADR-RES ovarian | TGI | 6.72 µM |
| O=c1oc2c(Cl)cc(Cl)cc2cc1C1=CSC2=NCCN12 | NCI/ADR-RES ovarian | TGI | > 100 µM |
| CSc1nc2c(c(=O)[nH]1)N=C(c1ccccc1)CC(c1ccccc1)N2 (stereo not drawn) | NCI/ADR-RES ovarian | TGI | > 100 µM |
| O=C(Nc1ccc(Cl)cc1)c1cc(S(=O)(=O)Nc2nnc3c(Cl)cc(C(F)(F)F)cn23)c(S)cc1Cl | NCI/ADR-RES ovarian | TGI | > 100 µM |
| O=C1CC(NCc2ccccc2)c2c(Cl)sc(Cl)c21 (stereo not drawn) | NCI/ADR-RES ovarian | TGI | > 86.3 µM |
| C[C@]12CC[C@@H]3c4ccc(O)cc4CC[C@H]3[C@@H]1Cc1cnc(N)nc12 | NCI/ADR-RES ovarian | TGI | 41.4 µM |
| Cn1cc(-c2csc(-c3cn(C)c4ccccc34)n2)c2ccccc21 | NCI/ADR-RES ovarian | TGI | > 100 µM |
| Cc1ccc(-c2nc3nc(-c4ccccc4)nc(N4CCNCC4)c3o2)cc1 | NCI/ADR-RES ovarian | TGI | 2.21 µM |
| COC(=O)/C=C1/OC(c2ccc(OC)cc2)=C(Cl)C1=O | NCI/ADR-RES ovarian | TGI | 66.5 µM |
| COc1ccc(-c2oc3c(OC)c(OC)cc(O)c3c(=O)c2OC)cc1 | NCI/ADR-RES ovarian | TGI | > 100 µM |
| [O-]c1ccccc1/C=N/C(/N=C/c1ccccc1[O-])c1ccccc1O.[O-]c1ccccc1/C=N/C(/N=C/c1ccccc1[O-])c1ccccc1O.[Zr+4] | NCI/ADR-RES ovarian | TGI | > 100 µM |
| O=S(=O)(c1cccc2c(I)cccc12)N1CCCNCC1 | NCI/ADR-RES ovarian | TGI | 43.5 µM |
| CC1=C(CCC(C)NCc2ccc(OCCCN3CCCCC3)cc2)C(C)(C)CCC1 (stereo not drawn) | NCI/ADR-RES ovarian | TGI | 3.47 µM |
| CC(C)C[C@H](NC(=O)[C@H](CC(C)C)NC(=O)[C@@H](Cc1c[nH]c2ccccc12)NC(=O)[C@H](Cc1ccccc1)NC(=O)[C@@H](Cc1c[nH]c2ccccc12)NC(=O)[C@H](CCC(N)=O)NC(=O)[C@H](CCC(N)=O)NC(=O)[C@H]1CCCN1C(=O)[C@@H](N)CCCCN)C(N)=O (H-K[dP]QQ[dW]F[dW]LL-NH2) | NCI/ADR-RES ovarian | TGI | > 100 µM |
| c1ccc([I+]c2ccccc2)cc1 | NCI/ADR-RES ovarian | TGI | > 100 µM |
| CC1=C(C)SC(=C2Sc3nc(O)[nH]c(=O)c3S2)S1 | NCI/ADR-RES ovarian | TGI | > 100 µM |
| CC1=C(C(=O)N[C@@H](CC(C)C)C(=O)O)N2C(=O)[C@@H](NC(=O)C(N)c3ccccc3)[C@H]2SC1 (stereo partly drawn) | NCI/ADR-RES ovarian | TGI | > 100 µM |
| O=C1c2ccc3c4c(ccc(c24)C(=O)N1CCCNCc1ccccc1Cl)C(=O)N(CCCNCc1ccccc1Cl)C3=O | NCI/ADR-RES ovarian | TGI | 0.456 µM |
